# assay_method_text: systemic availability study in dogs, testosterone, RIA method (Example 40)
# Type: in vivo
# reported_conditions: female, bred hound, dog, plasma, other: buccal (film disc applied to the buccal mucosa), 0.8 mg per disc; mean of three dogs, buccal ½ inch disc of Example 39 film, 0.8 mg testosterone per disc, time 120 minutes; read-out: systemic plasma level, Mean
property_label: concentration at 120 min (ng/mL)
Supply the numeric figure in ng/mL, leaving out any unit text.

Q: What value of concentration at 120 min has been reported for the following compound? C[C@]12CC[C@H]3[C@@H](CCC4=CC(=O)CC[C@@]43C)[C@@H]1CC[C@@H]2O [testosterone]
A: 7.14

* * *

# assay_method_text: systemic availability study in dogs, testosterone, RIA method (Example 40)
# Type: in vivo
# reported_conditions: female, bred hound, dog, plasma, other: buccal (film disc applied to the buccal mucosa), 0.8 mg per disc; mean of three dogs, buccal ½ inch disc of Example 39 film, 0.8 mg testosterone per disc, time 180 minutes; read-out: systemic plasma level, Mean
property_label: concentration at 180 min (ng/mL)
Give your result in ng/mL as a bare value.

Q: Name the recorded concentration at 180 min for C[C@]12CC[C@H]3[C@@H](CCC4=CC(=O)CC[C@@]43C)[C@@H]1CC[C@@H]2O [testosterone] .
A: 0.62

* * *

# assay_method_text: systemic availability study in dogs, testosterone, RIA method (Example 40)
# Type: in vivo
# reported_conditions: female, bred hound, dog, plasma, other: buccal (film disc applied to the buccal mucosa), 0.8 mg per disc; mean of three dogs, buccal ½ inch disc of Example 39 film, 0.8 mg testosterone per disc, time 240 minutes; read-out: systemic plasma level, Mean
property_label: concentration at 240 min (ng/mL)
Express it in ng/mL; write the number only.

Q: Can you share its concentration at 240 min? I mean this molecule: C[C@]12CC[C@H]3[C@@H](CCC4=CC(=O)CC[C@@]43C)[C@@H]1CC[C@@H]2O [testosterone]
A: 0.18

* * *

# assay_method_text: systemic availability study in dogs, testosterone, RIA method (Example 40)
# Assay type: in vivo
# reported_conditions: female, bred hound, dog, plasma, other: buccal (film disc applied to the buccal mucosa), 0.8 mg per disc; mean of three dogs, buccal ½ inch disc of Example 39 film, 0.8 mg testosterone per disc, time 60 minutes; read-out: systemic plasma level, Mean
property_label: concentration at 60 min (ng/mL)
Write the value in ng/mL as a bare number.

Q: Returns the measured concentration at 60 min for the input compound. Input: C[C@]12CC[C@H]3[C@@H](CCC4=CC(=O)CC[C@@]43C)[C@@H]1CC[C@@H]2O [testosterone]
A: 3.73

* * *

# assay_method_text: systemic availability study in dogs, testosterone, RIA method (Example 40)
# Format: in vivo
# reported_conditions: female, bred hound, dog, plasma, other: buccal (film disc applied to the buccal mucosa), 0.8 mg per disc; mean of three dogs, buccal ½ inch disc of Example 39 film, 0.8 mg testosterone per disc, time 15 minutes; read-out: systemic plasma level, Mean
# From the text: The films obtained via Examples 38 and 39 are die-cut in ½ inch diameter discs to be characterized and to be used for a systemic availability study in three dogs (20-25 kg spayed female bred hounds). One disc of the film to be evaluated is applied to the inside of the mouth on the buccal mucosa. A slight pressure is applied for 10 seconds. Then, the oral cavity is examined to assure adherence of the film to the mucosa and over the course of the study, to monitor the erosion of the discs. […]
property_label: concentration at 15 min (ng/mL)
Kindly answer with a numeric value in ng/mL, unit omitted.

Q: What value of concentration at 15 min has been recorded for this entry: `C[C@]12CC[C@H]3[C@@H](CCC4=CC(=O)CC[C@@]43C)[C@@H]1CC[C@@H]2O`
A: 3.81

Every entry's value here was drawn from patent US7579019B2.
